Each recorded value in this set is attributed to patent US12509431B2.

- EXPERIMENTAL TARGET: Porcine Ventricle myofibrils (left ventricle of Yucatan minipigs) (Sus scrofa, UniProt P79293)
- Construct: Myofibrils from porcine cardiac muscle was isolated from the left ventricle of Yucatan minipigs; tissue Exemplar Genetics; host or cells: left ventricle of Yucatan minipigs
- Sequence (P79293 whole entry): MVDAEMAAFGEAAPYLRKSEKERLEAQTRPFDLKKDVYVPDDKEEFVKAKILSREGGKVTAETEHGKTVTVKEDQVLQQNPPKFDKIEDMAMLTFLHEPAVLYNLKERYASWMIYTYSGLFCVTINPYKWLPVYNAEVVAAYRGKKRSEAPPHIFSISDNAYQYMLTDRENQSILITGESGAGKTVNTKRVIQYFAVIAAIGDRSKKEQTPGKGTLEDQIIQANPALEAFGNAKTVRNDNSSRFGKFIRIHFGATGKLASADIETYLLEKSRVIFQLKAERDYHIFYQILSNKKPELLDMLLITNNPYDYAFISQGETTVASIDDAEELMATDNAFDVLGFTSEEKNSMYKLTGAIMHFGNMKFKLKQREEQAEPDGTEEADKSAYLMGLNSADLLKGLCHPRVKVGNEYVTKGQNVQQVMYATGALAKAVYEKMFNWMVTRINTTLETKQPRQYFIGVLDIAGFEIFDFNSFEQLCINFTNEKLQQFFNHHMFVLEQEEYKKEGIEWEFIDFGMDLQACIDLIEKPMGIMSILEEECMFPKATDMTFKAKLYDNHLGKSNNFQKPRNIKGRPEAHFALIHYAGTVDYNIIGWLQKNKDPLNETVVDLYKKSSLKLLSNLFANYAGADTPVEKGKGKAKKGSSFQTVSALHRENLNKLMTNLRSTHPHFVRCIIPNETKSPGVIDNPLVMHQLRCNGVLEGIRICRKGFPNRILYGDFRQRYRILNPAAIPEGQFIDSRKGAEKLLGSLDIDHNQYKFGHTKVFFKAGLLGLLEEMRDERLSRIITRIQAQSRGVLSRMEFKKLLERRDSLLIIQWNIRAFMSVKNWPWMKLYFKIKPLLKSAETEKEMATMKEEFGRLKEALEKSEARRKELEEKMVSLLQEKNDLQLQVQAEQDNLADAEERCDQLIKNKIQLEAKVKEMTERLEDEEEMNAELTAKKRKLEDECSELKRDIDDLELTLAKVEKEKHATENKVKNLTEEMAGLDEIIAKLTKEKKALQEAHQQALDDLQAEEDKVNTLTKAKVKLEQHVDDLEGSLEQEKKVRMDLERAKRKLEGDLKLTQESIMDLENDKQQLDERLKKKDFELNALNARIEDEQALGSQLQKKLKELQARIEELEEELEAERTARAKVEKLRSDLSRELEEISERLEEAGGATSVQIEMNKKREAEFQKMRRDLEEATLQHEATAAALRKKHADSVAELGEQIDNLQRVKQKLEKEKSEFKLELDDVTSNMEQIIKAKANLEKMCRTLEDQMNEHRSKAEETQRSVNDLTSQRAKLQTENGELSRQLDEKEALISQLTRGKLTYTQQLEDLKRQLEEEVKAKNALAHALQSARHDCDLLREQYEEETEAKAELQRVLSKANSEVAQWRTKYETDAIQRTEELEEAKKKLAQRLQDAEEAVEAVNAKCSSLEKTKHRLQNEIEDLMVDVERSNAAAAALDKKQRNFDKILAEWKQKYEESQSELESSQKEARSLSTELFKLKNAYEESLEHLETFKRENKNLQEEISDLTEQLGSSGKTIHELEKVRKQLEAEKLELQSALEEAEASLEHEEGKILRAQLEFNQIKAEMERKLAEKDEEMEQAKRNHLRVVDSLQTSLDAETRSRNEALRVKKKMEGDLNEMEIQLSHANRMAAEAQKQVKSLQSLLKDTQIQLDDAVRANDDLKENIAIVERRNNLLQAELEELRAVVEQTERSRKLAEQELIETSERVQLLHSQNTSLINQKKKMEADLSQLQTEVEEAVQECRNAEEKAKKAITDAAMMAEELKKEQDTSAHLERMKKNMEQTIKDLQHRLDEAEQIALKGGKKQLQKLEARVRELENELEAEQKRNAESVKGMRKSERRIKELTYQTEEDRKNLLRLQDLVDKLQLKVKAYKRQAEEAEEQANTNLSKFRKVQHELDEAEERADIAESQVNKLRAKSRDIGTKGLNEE
- TEST DETAILS: Myofibril ATPase assay (PK/LDH NADH-coupled), ventricle myofibrils
- Assay type: biochemical
- TEST SETTINGS: Table 8
MEASURE NAME: Porcine Ventricle IC25 (µM)

Problem: I have this compound here, Cc1cccc2c1C1(CC1)N(CC(=O)N[C@H](C)c1cnc(C#N)cn1)C(=O)N2 , and I need its recorded Porcine Ventricle IC25.
Solution: 14.90

a: Cc1cccc2c1C1(CC1)N(CC(=O)N[C@H](C)c1ncc(C#N)nc1C)C(=O)N2
b: C[C@@H](C(=O)N[C@@H](CO)c1ccc(F)cc1F)N1Cc2c(Cl)cccc2NC1=O
c: C[C@H](NC(=O)CN1C(=O)Nc2ccc(C#N)cc2C12CC2)c1ncc(F)cc1F
Problem: Reorder the items by Porcine Ventricle IC25, least to greatest. List each label, following the requested order.
Solution: b, c, a

---

- EXPERIMENTAL TARGET: Porcine Ventricle myofibrils (left ventricle of Yucatan minipigs) (Sus scrofa, UniProt P79293)
- Construct: Myofibrils from porcine cardiac muscle was isolated from the left ventricle of Yucatan minipigs; tissue Exemplar Genetics; host or cells: left ventricle of Yucatan minipigs
- TEST DETAILS: Myofibril ATPase assay (PK/LDH NADH-coupled), ventricle myofibrils
- Type: biochemical
- TEST SETTINGS: Table 7
- Description: Myofibril ATPase assays are known in the art to be useful in evaluating small molecules for the treatment of HCM and other cardiac indications. Myosin ATPase activity is assessed by using a coupled reaction system, in which ADP generated by the myosin ATPase function is coupled to the disappearance of NADH through the pyruvate kinase/lactate dehydrogenase (PK-LDH) system. ATPase activity produces ADP, which is used as a substrate for PK to produce pyruvate and regenerate ATP. […]
MEASURE NAME: Porcine Ventricle IC25 (µM)

Problem: I have this compound here, C[C@H](NC(=O)[C@H](C)N1Cc2nc(C#N)ccc2NC1=O)c1ccc(F)cc1F , and I need its recorded Porcine Ventricle IC25.
Solution: 100

Problem: I have this compound here, O=C(CN1Cc2cnccc2NC1=O)N[C@H]1COc2cc(F)cc(F)c21 , and I need its recorded Porcine Ventricle IC25.
Solution: 100

I: C[C@@H](NC(=O)CN1C(=O)Nc2cccnc2C12CC2)c1ncc(C#N)cc1F
II: C[C@H](NC(=O)CN1Cc2cnccc2NC1=O)c1ccc(C#N)cc1F
Problem: Of I and II , which one carries the higher reported Porcine Ventricle IC25? Give the label under which the chosen entry appears.
Solution: I

---

- Test system: Porcine Atria myofibrils
- TEST DETAILS: Myofibril ATPase assay (PK/LDH NADH-coupled), atria myofibrils
- Assay type: biochemical
- TEST SETTINGS: Table 7
MEASURE NAME: Porcine Atria IC25 (µM)

Problem: I have this compound here, N#Cc1cnc2c(c1)CC[C@H]2NC(=O)CN1C(=O)Nc2cccnc2C12CC2 [Compound N1] , and I need its recorded Porcine Atria IC25.
Solution: 70.94

Problem: I have this compound here, COc1ccc2c(n1)CN([C@H](C)C(=O)N[C@@H](C)c1ccc(F)cc1F)C(=O)N2 [Compound N106] , and I need its recorded Porcine Atria IC25.
Solution: 2.58

Problem: I have this compound here, C[C@@H](NC(=O)CN1Cc2c(ccnc2C(F)(F)F)NC1=O)c1ncc(F)cc1F [Compound N79] , and I need its recorded Porcine Atria IC25.
Solution: 100.00

Problem: I have this compound here, C[C@H](NC(=O)CN1Cc2nc(C#N)ccc2NC1=O)c1ncc(F)cc1F [Compound N59] , and I need its recorded Porcine Atria IC25.
Solution: 6.80

Problem: I have this compound here, C[C@H](NC(=O)CN1C(=O)Nc2ccncc2[C@@H]1C)c1ccc(F)cc1F [Compound N86] , and I need its recorded Porcine Atria IC25.
Solution: 30.96

A: N#Cc1nccc2c1CN(CC(=O)N[C@H](CO)c1ccc(F)cc1F)C(=O)N2 [Compound N40]
B: C[C@H](NC(=O)[C@H](C)N1Cc2c(ccnc2C(F)(F)F)NC1=O)c1ccc(F)cc1F [Compound N108]
Problem: Of A and B , which one carries the higher reported Porcine Atria IC25? Give the label under which the chosen entry appears.
Solution: A

A: C[C@H](NC(=O)CN1Cc2c(C#N)cncc2NC1=O)c1ccc(F)cc1F [Compound N24]
B: C[C@H](NC(=O)CN1Cc2nc(OC(F)(F)F)ccc2NC1=O)c1ccc(F)cc1F [Compound N109]
Problem: Of A and B , which one carries the higher reported Porcine Atria IC25? Give the label under which the chosen entry appears.
Solution: B
(B: 5.44 µM, A: 2.97 µM)

---

- Tested on: Porcine Atria myofibrils
- TEST DETAILS: Myofibril ATPase assay (PK/LDH NADH-coupled), atria myofibrils
- Format: biochemical
- TEST SETTINGS: Table 7
MEASURE NAME: Porcine Atria IC25 (µM)

// solved cases for Porcine Atria IC25 follow
Problem: I have this molecule here, O=C(CN1Cc2cnccc2NC1=O)N[C@H]1COc2cc(F)cc(F)c21 , and I need its recorded Porcine Atria IC25.
Solution: 100.00

Problem: I have this molecule here, C[C@H](NC(=O)CN1Cc2c(Cl)cncc2NC1=O)c1ccc(F)cc1F , and I need its recorded Porcine Atria IC25.
Solution: 100.00

Problem: I have this molecule here, C[C@@H](NC(=O)CN1Cc2c(ccnc2C#N)NC1=O)c1ncc(F)cc1F , and I need its recorded Porcine Atria IC25.
Solution: 100.00

Problem: I have this molecule here, C[C@H](NC(=O)CN1Cc2cnccc2NC1=O)c1ccc(F)cc1F , and I need its recorded Porcine Atria IC25.
Solution: 2.80

Problem: I have this molecule here, Cc1c(F)cnc2c1CN(CC(=O)N[C@@H](C)c1ncc(F)cc1F)C(=O)N2 , and I need its recorded Porcine Atria IC25.
Solution: 100.00

a: C[C@H](NC(=O)[C@H](C)N1Cc2c(ccnc2Cl)NC1=O)c1ccc(F)cc1F
b: C[C@H](NC(=O)CN1Cc2cc(Cl)cnc2NC1=O)c1ncc(F)cc1F
c: C[C@H](NC(=O)CN1Cc2c(ccnc2C#N)NC1=O)c1ncc(F)cc1F
d: O=C(CN1C(=O)Nc2cccnc2C12CC2)N[C@H](CO)c1ccc(F)cc1F [Compound N43]
e: C[C@H](NC(=O)[C@@H](C)N1Cc2ncccc2NC1=O)c1ccc(F)cc1F
Problem: Reorder the items by Porcine Atria IC25, least to greatest. List each label, following the requested order.
Solution: c, a, e, d, b
(c: 0.97 µM, a: 2.30 µM, e: 3.69 µM, d: 32.69 µM, b: 100.00 µM)

---

- EXPERIMENTAL TARGET: Porcine Ventricle myofibrils (left ventricle of Yucatan minipigs) (Sus scrofa, UniProt P79293)
- Construct: Myofibrils from porcine cardiac muscle was isolated from the left ventricle of Yucatan minipigs; tissue Exemplar Genetics; host or cells: left ventricle of Yucatan minipigs
- TEST DETAILS: Myofibril ATPase assay (PK/LDH NADH-coupled), ventricle myofibrils
- Assay type: biochemical
- TEST SETTINGS: Table 8
MEASURE NAME: Porcine Ventricle IC25 (µM)

Problem: I have this compound here, C[C@H](NC(=O)CN1Cc2cc(CN(C)C)ccc2NC1=O)c1ncc(C#N)cc1F , and I need its recorded Porcine Ventricle IC25.
Solution: 60.47

Problem: I have this compound here, C[C@H](NC(=O)C(C)(C)N1Cc2c(ccc(F)c2F)NC1=O)c1ncc(C#N)cc1F , and I need its recorded Porcine Ventricle IC25.
Solution: 3.96

Problem: I have this compound here, C[C@H](NC(=O)CN1C(=O)Nc2ccc(F)cc2C12CC2)c1ncc(F)cc1F , and I need its recorded Porcine Ventricle IC25.
Solution: 0.3444

Problem: I have this compound here, C[C@H](NC(=O)[C@H](CC1CC1)N1Cc2c(ccc(F)c2F)NC1=O)c1ccc(F)cc1F , and I need its recorded Porcine Ventricle IC25.
Solution: 62.1

1: C[C@H](NC(=O)[C@H](C)N1Cc2cc(F)ccc2NC1=O)c1ccc(F)cc1F
2: C[C@H](NC(=O)CN1Cc2c(ccc(F)c2F)NC1=O)c1ncc(-n2ncnn2)cc1F
Problem: Quick one: lower Porcine Ventricle IC25, 1 or 2 ? Give the label under which the chosen entry appears.
Solution: 2
(2: 5.36 µM, 1: 100 µM)

---

- EXPERIMENTAL TARGET: Porcine Ventricle myofibrils (left ventricle of Yucatan minipigs) (Sus scrofa, UniProt P79293)
- Construct: Myofibrils from porcine cardiac muscle was isolated from the left ventricle of Yucatan minipigs; tissue Exemplar Genetics; host or cells: left ventricle of Yucatan minipigs
- TEST DETAILS: Myofibril ATPase assay (PK/LDH NADH-coupled), ventricle myofibrils
- Format: biochemical
- TEST SETTINGS: Table 7
MEASURE NAME: Porcine Ventricle IC25 (µM)

Problem: I have this compound here, C[C@H](NC(=O)[C@H](C)N1Cc2nc(F)ccc2NC1=O)c1ccccc1F [Compound N92] , and I need its recorded Porcine Ventricle IC25.
Solution: 100

Problem: I have this compound here, N#Cc1ccc([C@@H](CO)NC(=O)CN2Cc3c(ccnc3C#N)NC2=O)c(F)c1 [Compound N31] , and I need its recorded Porcine Ventricle IC25.
Solution: 1.237

I: CC(C)C[C@@H](C(=O)N[C@@H](C)c1ccc(F)cc1F)N1Cc2nc(F)ccc2NC1=O [Compound N89]
II: C[C@H](NC(=O)[C@H](C)N1Cc2c(ccnc2Cl)NC1=O)c1ccc(F)cc1F [Compound N114]
Problem: Quick one: lower Porcine Ventricle IC25, I or II ? Give the label under which the chosen entry appears.
Solution: II
